# credit: ChEMBL document CHEMBL3886359

pIC50 for assorted compounds
Target: Transient receptor potential cation channel subfamily V member 3 (Homo sapiens)
Sequence (Q8NET8 whole entry): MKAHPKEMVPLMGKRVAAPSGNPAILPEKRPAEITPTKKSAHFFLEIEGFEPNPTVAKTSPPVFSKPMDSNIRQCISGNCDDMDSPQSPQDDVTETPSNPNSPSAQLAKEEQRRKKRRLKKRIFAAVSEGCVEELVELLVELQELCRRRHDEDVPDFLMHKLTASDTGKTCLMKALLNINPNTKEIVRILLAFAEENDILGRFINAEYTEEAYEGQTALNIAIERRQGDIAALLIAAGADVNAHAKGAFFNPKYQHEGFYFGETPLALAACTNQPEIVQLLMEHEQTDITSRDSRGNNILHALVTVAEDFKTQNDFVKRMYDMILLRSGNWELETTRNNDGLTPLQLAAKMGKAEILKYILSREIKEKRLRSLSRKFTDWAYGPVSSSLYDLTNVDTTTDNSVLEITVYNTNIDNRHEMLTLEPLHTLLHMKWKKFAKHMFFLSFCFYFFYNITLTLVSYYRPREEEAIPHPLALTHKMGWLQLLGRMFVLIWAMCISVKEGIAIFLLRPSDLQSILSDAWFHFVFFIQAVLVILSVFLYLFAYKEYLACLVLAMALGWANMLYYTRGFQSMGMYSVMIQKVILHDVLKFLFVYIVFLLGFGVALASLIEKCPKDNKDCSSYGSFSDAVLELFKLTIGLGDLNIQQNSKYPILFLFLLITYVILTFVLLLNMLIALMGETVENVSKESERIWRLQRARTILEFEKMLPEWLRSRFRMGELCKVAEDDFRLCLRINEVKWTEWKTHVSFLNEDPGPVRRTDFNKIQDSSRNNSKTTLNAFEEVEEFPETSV
Assay: Radiometric Calcium Assay: The inhibition of TRPA1 receptor activation was measured as inhibition of allylisothiocyanate (AITC) induced cellular uptake of radioactive calcium. Test compounds were dissolved in DMSO to prepare 10 mM stock solution and then diluted using plain medium with 0.1% BSA and 1.8 mM CaCl2 to get desired concentration. Final concentration of DMSO in the reaction was 0.5% (v/v). Human TRPA1 expressing CHO cells were grown in F-12 DMEM medium with 10% FBS, 1% penicillin-streptomycin solution, and 400 ug/ml of G-418. Cells were seeded 24 h prior to the assay in 96 well plates so as to get 50,000 cells per well on the day of experiment. Cells were treated with test compounds for 10 min followed by addition of AITC at a final concentration of 30 micromolar and 5 uCi/ml 45Ca+2 for 3 min at 25° C. Cells were washed and lysed using buffer containing 1% Triton X-100, 0.1% deoxycholate and 0.1% SDS. Radioactivity in the lysate was measured in Packard Top count.
pIC50: −log10 of the molar value.
MEASURED QUANTITY: pIC50

- SAMPLE SMILES: "Cc1oc2c(c1CC(=O)Nc1nc(-c3ccc(OC(F)(F)F)c(Cl)c3)cs1)c(=O)n(C)c(=O)n2C"
  MEASURED QUANTITY: "pIC50"
  RESULT MODIFIER: "="
  QUANTITATIVE READOUT: 5.35
- SAMPLE SMILES: "Cn1nc2c(c1CC(=O)/N=c1\\scc(-c3ccc(F)c(C(F)(F)F)c3F)n1COP(=O)(O)O)c(=O)n(C)c(=O)n2C"
  MEASURED QUANTITY: "pIC50"
  RESULT MODIFIER: "<"
  QUANTITATIVE READOUT: 5.00
- SAMPLE SMILES: "Cn1c(=O)c2c(CC(=O)Nc3nc(-c4ccc(C(F)(F)F)c(F)c4F)cs3)nsc2n(C)c1=O"
  MEASURED QUANTITY: "pIC50"
  RESULT MODIFIER: "="
  QUANTITATIVE READOUT: 5.55
- SAMPLE SMILES: "Cc1oc2c(c1CC(=O)/N=c1\\scc(-c3ccc(OC(F)(F)F)c(Cl)c3)n1COP(=O)(O)O)c(=O)n(C)c(=O)n2C"
  MEASURED QUANTITY: "pIC50"
  RESULT MODIFIER: "<"
  QUANTITATIVE READOUT: 5.00
- SAMPLE SMILES: "Cc1oc2c(c1CC(=O)/N=c1\\scc(-c3ccc(OC(F)(F)F)c(Cl)c3)n1COC(=O)[C@@H](N)C(C)C)c(=O)n(C)c(=O)n2C"
  MEASURED QUANTITY: "pIC50"
  RESULT MODIFIER: "="
  QUANTITATIVE READOUT: 5.55
- SAMPLE SMILES: "Cn1c(=O)c2c(CC(=O)Nc3nc(-c4ccc(F)c(C(F)(F)F)c4F)cs3)csc2n(C)c1=O"
  MEASURED QUANTITY: "pIC50"
  RESULT MODIFIER: "="
  QUANTITATIVE READOUT: 5.60
